Cited source for all entries: PubChem BioAssay (NCI)

Experiment: NCI Yeast Anticancer Drug Screen. Data for the sgs1 mgt1 strain (AID 161);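 also: 0% = growth of cultures given vehicle only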
Settings: S. cerevisiae sgs1 mgt1 strain, at 50.0 µM, active compounds read high
This is part of a sample that, as a whole, favours compounds with a hit. Of some 79,000 tested, about 15% had one in any assay.
Measure Name: growth inhibition (%)
Answers are plain numbers, in %.

Batch request: growth inhibition for each of the following compounds.
1. COc1ccc(N=C2S/C(=N\C(=Nc3ccccc3)SCc3ccccc3)N(c3ccccc3)C2=Nc2ccc(OC)cc2)cc1
2. Cc1cn(C2CC(C)N(CCO)O2)c(=O)[nH]c1=O (stereo not drawn)
3. O=C(Nc1ccccc1)c1cc([N+](=O)[O-])cc([N+](=O)[O-])c1
4. CN1CCN(C(CO)Cc2ccccc2)CC1 (stereo not drawn)
5. CN1C(c2ccccc2)=C(C#N)C(=O)CC(c2cccs2)N1C (stereo not drawn)
6. COc1ccc(C(=O)c2ccc(OC)cc2OC)cc1
7. CC(=O)COc1ccccc1-c1ccccc1

1. -8.25
2. -16.8
3. 15.3
4. -9.5
5. 33.6
6. 21.4
7. 4.9

Batch request: growth inhibition for each of the following compounds.
1. Cc1ccc2c(c1)SN(CN1C(=O)c3ccccc3C1=O)N2
2. OC(Cc1ccccn1)c1ccccc1 (stereo not drawn)
3. CC(C)C(Br)C(=O)N1CCOCC1 (stereo not drawn)
4. O=C(O)c1ccc2c(c1)CC1(C2)Cc2ccccc2C1=O (stereo not drawn)
5. O=C(O)C(O)(O)C(O)(O)C(=O)O

-7.15
21.4
-5.2
-8.2
-4
